The measurements presented in this section are drawn from the supplement of paper PMC10065799.

phosphorylation enrichment by entry:
Test system: c-Abl (mouse);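 note: 11-residue human phosphosite peptides and single-mutation variants displayed on the E. coli surface, counted by deep sequencing, each peptide's frequency after selection divided by its frequency in the unselected input library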;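 note: frequency after pTyr selection over input frequency; kinase dosed for 20-30% of maximal phosphorylation in three min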
ASSAY SUMMARY: phosphorylation enrichment, bacterial display (enrichment ratio); higher = better substrate or ligand; peptides without Tyr show the background
PARAMETER: phosphorylation enrichment

1. EYKDAYKFAAD [BRDT_Y335] = 0.666
2. ERLLDYTRTVQ [INPP5E_Y439] = 0.853
3. IKETHYMVDKC = 0.652
4. WFQTKYEELQV [KRT6B_Y360_I365V_YF] = 0.712
5. AKKKMYSRKTK [AGXT_Y231] = 0.478
6. GREEFYVHYVG [KAT8_Y90] = 0.788
7. MANYMYKAGPS [MAML2_Y515] = 1.04
8. GRTPLYMDRQG [AGXT_Y194_G190R] = 0.473
9. EEVGIYRMSGV [BCR_Y1089_V1091M] = 9.58
